Molecular target: human MALT-1 protein (Homo sapiens (Human))
Sequence (Q9UDY8 whole entry): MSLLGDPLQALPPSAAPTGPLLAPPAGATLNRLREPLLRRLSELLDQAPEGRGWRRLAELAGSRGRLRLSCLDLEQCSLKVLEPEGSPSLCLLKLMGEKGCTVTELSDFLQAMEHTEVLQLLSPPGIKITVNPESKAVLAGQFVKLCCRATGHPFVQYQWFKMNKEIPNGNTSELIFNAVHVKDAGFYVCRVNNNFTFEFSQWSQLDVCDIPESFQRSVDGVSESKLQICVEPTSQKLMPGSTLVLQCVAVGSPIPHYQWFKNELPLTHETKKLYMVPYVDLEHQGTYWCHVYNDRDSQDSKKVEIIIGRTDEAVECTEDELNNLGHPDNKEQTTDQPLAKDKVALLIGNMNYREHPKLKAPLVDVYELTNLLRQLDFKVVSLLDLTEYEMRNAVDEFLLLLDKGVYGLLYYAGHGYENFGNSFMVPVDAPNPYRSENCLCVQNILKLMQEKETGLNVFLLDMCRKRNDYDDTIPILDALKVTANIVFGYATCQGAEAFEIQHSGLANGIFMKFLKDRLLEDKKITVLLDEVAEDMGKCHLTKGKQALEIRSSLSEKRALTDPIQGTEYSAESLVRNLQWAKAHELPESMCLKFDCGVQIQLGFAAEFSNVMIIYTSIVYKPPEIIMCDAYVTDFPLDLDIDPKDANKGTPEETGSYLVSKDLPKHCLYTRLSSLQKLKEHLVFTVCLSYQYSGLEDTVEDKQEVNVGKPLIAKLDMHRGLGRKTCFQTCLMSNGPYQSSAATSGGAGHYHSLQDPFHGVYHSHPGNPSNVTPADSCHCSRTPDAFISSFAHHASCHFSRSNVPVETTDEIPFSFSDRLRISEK
Assay: MALT-1 Biochemical Assay (Quench-FRET enzyme assay)
Settings: human MALT-1 6 nM, substrate 2 μM, 40 min preincubation
Overview of reported EC50 across a group of compounds:

>  <compound>
CO[C@H](c1c(Nc2ccc([C@H](N(C)C(=O)C3CCS(=O)(=O)CC3)C(F)(F)F)cc2F)cnc2sc(C)nc12)C(F)F (single isomer, unassigned)

>  <EC50 / nM>
92

$$$$
>  <compound>
CO[C@H](c1c(Nc2ccc([C@@H](C(F)F)N(C)C(=O)C3CCN(C(C)=O)CC3)cc2)cnc2sc(C)nc12)C(F)(F)F

>  <EC50 / nM>
60

$$$$
>  <compound>
CO[C@@H](C)c1c(Nc2ccc([C@@H](C(F)F)N(C)C(=O)C3CCN(C(C)=O)CC3)cc2)cnc2sc(C)nc12

>  <EC50 / nM>
232

$$$$
